# assay-summary: AUC (0 to t) in Sprague-Dawley rat at 100 mg/kg, po measured upto 24 hrs by LC-MS analysis
# Assay type: ADME, organism-based
# Design: route oral, dose 100 mg/kg, time <=24
# setup-conditions: in vivo
recorded-metric: AUC(0-t) at 24 h (ng·h/mL)
Your answer should be a plain number; it is taken to be in ng·h/mL.

# input molecule: "CON(C)C(=O)Oc1ccccc1C(=O)NCCc1c[nH]c2ccccc12" ; wanted: its AUC(0-t) at 24 h
3900

----------
# assay-summary: MRT(0 to t) in Sprague-Dawley rat at 100 mg/kg, po measured upto 24 hrs by LC-MS analysis
# Type: ADME, organism-based
# setup-conditions: in vivo
recorded-metric: MRT last at 24 h (h)
Record the value in h, omitting the unit from your answer.

For the compound shown here, "CON(C)C(=O)Oc1ccccc1C(=O)NCCc1c[nH]c2ccccc12" , give the reported MRT last at 24 h.
4.89
